- Tested on: human lung fibroblast cell line WI-38
- PROTOCOL DESCRIPTION: Inhibition of IL-1β-induced PGE2 production, whole cell-based assay
- ASSAY SETUP: Table 2; 5% fetal calf serum-containing media; compound 0.5 uM; IL-1β 100 pg/mL, 24 hours
PARAMETER: PGE2

Answered cases to consult:
[
  {
    "MOLECULE": "C[C@H](C(=O)O)c1cccc(C(=O)c2ccccc2)c1 [(S)-ketoprofen]",
    "MEASURED TARGET": "human lung fibroblast cell line WI-38",
    "READOUT VALUE": "145 pg/mL"
  },
  {
    "MOLECULE": "Cc1ccc(-c2cc(C(F)(F)F)nn2-c2ccc(S(N)(=O)=O)cc2)cc1",
    "MEASURED TARGET": "human lung fibroblast cell line WI-38",
    "READOUT VALUE": "16 pg/mL"
  },
  {
    "MOLECULE": "NCC[C@H](Oc1ccc(C(F)(F)F)cc1)c1ccccc1 [(S)-norfluoxetine, S-norfluoxetine]",
    "MEASURED TARGET": "human lung fibroblast cell line WI-38",
    "READOUT VALUE": "483 pg/mL"
  },
  {
    "MOLECULE": "CC(C(=O)O)c1cccc(C(=O)c2ccccc2)c1 (racemic)",
    "MEASURED TARGET": "human lung fibroblast cell line WI-38",
    "READOUT VALUE": "119 pg/mL"
  }
]

Read the next record carefully.
Missing value: PGE2, human lung fibroblast cell line WI-38, entry NCC[C@@H](Oc1ccc(C(F)(F)F)cc1)c1ccccc1 [(R)-norfluoxetine, R-norfluoxetine] . Fill in? 255 pg/mL

* * *

- System: human lung fibroblast cell line WI-38
- PROTOCOL DESCRIPTION: Inhibition of IL-1β-induced PGE2 production, whole cell-based assay
- ASSAY SETUP: Homo sapiens; WI-38 cells, 0.009-20 concentrations, 4-parameter fit; read-out: IC50 (PGE2 produced)
pIC50: −log10 of the molar value.
PARAMETER: pIC50

Missing value: pIC50, human lung fibroblast cell line WI-38, entry NCC[C@H](Oc1ccc(C(F)(F)F)cc1)c1ccccc1 [(S)-norfluoxetine, S-norfluoxetine] . Fill in? ~5.85
